- test-protocol: yeast display, Sf9 membrane polyspecificity reagent, FACS + sequencing; frameworks hold sequencing errors
measurement-label: polyreactivity (PSR sort gate)

# example entries with known answers
1) QVQLVESGGGLVQAGGSLRLSCAASGRTFSRYTMGWYRQAPGKEREFVAAISVNGGTTHYADSVKGRFTISRDNAKNTVYLQMNSLKPEDTAVYYCAARNYLARRYGYWGQGTQVTVSS    high polyreactivity
2) QVQLVESGGGLVQAGGSLRLSCAASGSIFSSNAMGWYRPAPGKERELVAAISSGGTTNYADSVKGRFTISRDNAKHTVYLQMNSLKPEDTAVYYCAKRGPSRPAEYDYWGQGTQVTVSS    low polyreactivity
3) QVQLVESGGGLVQAGGSLRLSCAASGFIFSWNAMGWYRQAPGKERELVAGISWSGGSTYYADSVKGRFTISRDNAKNTVYLQMNSLKPEDTAVYYCAKEPSVGTGGVYRYGRGDYWGQGTQVTVSS    low polyreactivity
4) QVQLVESGGGLVQAGGSLRLSCAASGIILGSYVMGWYRQAPGKERELVAVISFSGGSTYSADSVKGRFTISRDNAKNTVYLQMNSLKPEDTAVYYCAADNFRSYTIRSPYNYWGQGTQVTVSS    low polyreactivity

// polyreactivity (PSR sort gate) lookup, key: "QVQLVESGGGLVQAGGSLRLSGAASGFIFAAYAMGWYRQAPGKERELVASISNGGGSTYYADSVKGRYTISRDNAKNTVYLQMNSQNPEVSAVYYCNARQYYAVTRKYYVRLDYWGQGTQVTVES"
high polyreactivity

And "QVQLVESGGGLVQAGGSLRLICAASGRTFYLYAMGWYRQAPGKERELVASITKSGGSTYYADSVKGRFTISRDNAKNTVYLQMNSLKPEDTAVYYCATDGRWRLAGAFTGKRRTYDYWGQGTQVTVSS" ?
low polyreactivity

Ok, now "QVQLVESGGGLVQAGGSLRLSCAASGFTLKSYAMGWYRQAPGKERELVASISRRGGSTYYADSVKGRFTISRDNAKNTVYLQMNSLKPEDTAVYYCNADYVRYPGNAYDYWGQGTQVTVSS"
high polyreactivity

Next entry: "QVQLVESGGGLVQAGGSLRLSCAASGSIFTLNAMGWYRQAPGKERELVAAIRWSGGSTYYADSVKGRFTISRDNAKNTVYLQMNSLKPEDTAVYYCAAKYPSDYYSRGFNYWGQGTQVTVSS"
high polyreactivity

Now consider "QVQLVESGGGLDQAGGSLRLSCAASGRTFEYNAMGLYRQAPGKERELVATIRYSGTSTYADSVKGRFTISRDNAKNTAYLQMNSLKPEDTAVYYCNKLGYYYDRRYDYWGQGTQVTVSS" .
high polyreactivity

Same for "QVQLVDSGGGLVQAGGSLRLSCAASGSIFEINAMGWYRQAPGKERELVAVITDSGSTYYEDSVKGRFTISRDNAKNTVDLQMNSLKPEDTAVYYCAAEYSLLFFLMDYWGQGTQVTVSS"
low polyreactivity

Also need "QVQLVESGGGLVQAGGSLRLSCAASGSTFAYNDMGWYRQAPGKERELVADIRSGGNTNYADSVKGRFTISRDNAKNTVYLQMNSLKPEDTAVYYCATDGYRIDVYHPDYRYDYWGQCTQVTVSS" , thanks.
low polyreactivity

Same lookup for "QVQLVESGGGLVQAGGRLRLSCAASGLIFTWNAMGWYRQAPGKERELVAAISTGGSTSYADSVKGRFTISRDNAMNTVYLQMNSMKPEDTAVYYCARDSSIWSHGSWYDYWGQGTQVTVSS" , please.
low polyreactivity
